Reference source: patent US20180044434A1

# testSystem: T1, full-length recombinant human PAD4 (human, UniProt Q9UM07 1-663)
# T1 construct: Full-length recombinant; also called peptidylarginine deiminase 4
# T1 sequence (Q9UM07 whole entry): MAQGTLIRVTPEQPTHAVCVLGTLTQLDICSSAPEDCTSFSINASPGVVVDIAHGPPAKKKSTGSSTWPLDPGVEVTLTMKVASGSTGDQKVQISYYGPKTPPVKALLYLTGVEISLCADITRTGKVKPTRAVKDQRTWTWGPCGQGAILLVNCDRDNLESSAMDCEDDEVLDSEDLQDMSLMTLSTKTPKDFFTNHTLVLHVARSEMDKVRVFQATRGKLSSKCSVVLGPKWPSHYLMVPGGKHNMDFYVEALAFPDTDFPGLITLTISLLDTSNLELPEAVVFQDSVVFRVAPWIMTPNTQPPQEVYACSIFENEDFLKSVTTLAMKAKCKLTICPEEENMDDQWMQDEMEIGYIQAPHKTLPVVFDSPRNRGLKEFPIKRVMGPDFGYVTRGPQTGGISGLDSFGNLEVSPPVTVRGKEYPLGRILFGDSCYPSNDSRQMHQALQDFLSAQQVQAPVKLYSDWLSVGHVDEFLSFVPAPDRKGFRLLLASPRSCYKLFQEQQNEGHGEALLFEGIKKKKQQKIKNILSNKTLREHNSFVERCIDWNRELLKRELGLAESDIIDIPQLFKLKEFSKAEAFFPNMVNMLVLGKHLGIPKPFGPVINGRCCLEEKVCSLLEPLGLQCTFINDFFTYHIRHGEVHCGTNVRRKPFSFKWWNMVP
# assayNotes: ELISA, coated human PAD4; antibody 0.0002441 ug/mL
endpointName: OD 490/630 nm
Just the number, please, no unit attached.

Known OD 490/630 nm results, listed for orientation:
{"binder": "G6 (antibody, V domains shown, Chicken variable regions in a mouse chimeric antibody (IgG1); also called anti-PAD4 antibody G6) VH: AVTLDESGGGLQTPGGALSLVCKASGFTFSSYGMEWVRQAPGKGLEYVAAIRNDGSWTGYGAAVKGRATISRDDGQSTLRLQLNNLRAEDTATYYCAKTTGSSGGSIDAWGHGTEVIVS VL: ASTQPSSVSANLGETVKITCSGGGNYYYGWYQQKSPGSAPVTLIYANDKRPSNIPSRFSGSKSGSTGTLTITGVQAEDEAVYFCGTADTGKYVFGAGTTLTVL", "OD 490/630 nm": 0.166}
{"binder": "G8 (antibody, V domains shown, Chicken variable regions in a mouse chimeric antibody (IgG1); also called anti-PAD4 antibody G8) VH: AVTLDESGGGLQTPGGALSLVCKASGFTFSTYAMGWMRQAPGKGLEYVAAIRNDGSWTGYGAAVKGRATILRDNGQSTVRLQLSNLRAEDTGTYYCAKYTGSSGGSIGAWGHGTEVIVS VL: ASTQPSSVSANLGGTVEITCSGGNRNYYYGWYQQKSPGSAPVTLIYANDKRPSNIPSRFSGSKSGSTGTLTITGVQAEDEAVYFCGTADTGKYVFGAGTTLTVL", "OD 490/630 nm": 0.184}
{"binder": "A11 (antibody, V domains shown, Chicken variable regions in a mouse chimeric antibody (IgG1); also called anti-PAD4 antibody A11) VH: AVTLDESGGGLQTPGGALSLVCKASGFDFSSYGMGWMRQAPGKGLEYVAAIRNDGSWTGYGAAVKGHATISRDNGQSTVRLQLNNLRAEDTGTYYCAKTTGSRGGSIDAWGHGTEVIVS VL: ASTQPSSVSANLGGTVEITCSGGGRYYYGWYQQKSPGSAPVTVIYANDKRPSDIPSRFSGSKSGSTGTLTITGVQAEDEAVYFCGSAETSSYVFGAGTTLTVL", "OD 490/630 nm": 0.206}
{"binder": "G9 (antibody, V domains shown, Chicken variable regions in a mouse chimeric antibody (IgG1); also called anti-PAD4 antibody G9) VH: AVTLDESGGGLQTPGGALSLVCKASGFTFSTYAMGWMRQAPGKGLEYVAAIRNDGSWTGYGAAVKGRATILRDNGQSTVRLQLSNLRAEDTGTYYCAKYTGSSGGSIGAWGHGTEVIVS VL: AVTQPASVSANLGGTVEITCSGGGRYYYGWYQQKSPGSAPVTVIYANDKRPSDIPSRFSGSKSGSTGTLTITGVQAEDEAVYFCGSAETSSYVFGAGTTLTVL", "OD 490/630 nm": 0.187}
{"binder": "E9 (antibody, V domains shown, Chicken variable regions in a mouse chimeric antibody (IgG1); also called anti-PAD4 antibody E9) VH: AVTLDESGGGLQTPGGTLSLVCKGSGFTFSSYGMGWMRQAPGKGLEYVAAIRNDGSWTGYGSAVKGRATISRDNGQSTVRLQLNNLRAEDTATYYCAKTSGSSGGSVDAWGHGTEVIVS VL: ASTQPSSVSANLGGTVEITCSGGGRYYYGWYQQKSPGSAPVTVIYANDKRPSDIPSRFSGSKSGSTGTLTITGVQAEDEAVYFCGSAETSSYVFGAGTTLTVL", "OD 490/630 nm": 0.176}

We now examine a further binder.
Briefly, OD 490/630 nm measured for H7 (antibody, V domains shown, Chicken variable regions in a mouse chimeric antibody (IgG1); also called anti-PAD4 antibody H7) VH: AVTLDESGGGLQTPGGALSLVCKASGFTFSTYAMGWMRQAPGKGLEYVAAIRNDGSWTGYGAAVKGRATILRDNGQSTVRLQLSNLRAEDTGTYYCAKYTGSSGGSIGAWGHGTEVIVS VL: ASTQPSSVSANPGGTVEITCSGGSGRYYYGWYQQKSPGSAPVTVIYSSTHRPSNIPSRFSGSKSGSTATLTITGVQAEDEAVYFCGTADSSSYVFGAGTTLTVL : 0.217
